test system: LXFL 529; test: NCI tumour cell line growth inhibition, 48 h
Active and inactive are the calls of the source. Rule as the data show it: active = GI50 up to about 1.1 µM and inactive = higher.
Measured GI50, listed per entry.

A selection of reference data follows.
INSERT INTO assay_data (compound, measurement_label, result) VALUES
  ('Cc1ccc2c(CC(=O)O)cc(=O)oc2c1', 'GI50', '> 100 µM (inactive)'),
  ('O=[N+]([O-])C(/C=N/Nc1ccccc1)/C=N/Nc1ccccc1', 'GI50', '> 100 µM (inactive)'),
  ('[C-]#[N+]C(C)(C)C[C@H]1CC(C)C2CCC(C)C3([N+]#[C-])CCC(=C)C1[C@H]23 (stereo partly drawn)', 'GI50', '1.82 µM (inactive)'),
  ('ClC[Si]12OCCN(CCO1)CCO2', 'GI50', '> 100 µM (inactive)'),
  ('c1ccc(C2N=C(c3ccccn3)C(c3ccccn3)=NC2c2ccccc2)cc1 (stereo not drawn)', 'GI50', '> 100 µM (inactive)'),
  ('CCn1cnnc1-c1nsc2ccccc12', 'GI50', '> 100 µM (inactive)'),
  ('C=C1CC2CC[C@@]34C[C@H]5O[C@@H]6C(O[C@H]7CC[C@H](CC(=O)OC8[C@H](C)C9OC%10C[C@]%11(C[C@@H]%12O[C@]%13(C[C@H](C)[C@@H]%14O[C@H]([C@H](O)C[C@H](O)CO)C[C@@H]%14O%13)C[C@H](C)[C@@H]%12O%11)OC%10CC9O[C@H]8C[C@H]8O[C@H](CC[C@@H]1O2)C[C@@H](C)C8=C)O[C@H]7[C@@H]6O3)[C@@H]5O4 (stereo partly drawn)', 'GI50', '0.00129 µM (active)'),
  ('CCc1cccc(CC)c1NC1=CC(=O)C(=O)c2ccccc21', 'GI50', '19.4 µM (inactive)');

Reported GI50 for CC(=O)OC1COC(N2C(=O)/C(=N\Nc3ccc([N+](=O)[O-])cc3)c3cc(Br)c([N+](=O)[O-])cc32)C(OC(C)=O)C1OC(C)=O (stereo not drawn) : what is it?
21.8 µM (inactive)

Likewise for CN(N=O)C(=O)N(N)CCCCC(NC(=O)OCc1ccccc1)C(=O)OCc1ccccc1 (stereo not drawn) ?
53.2 µM (inactive)
